Data origin: PubChem BioAssay AID624483

assay: compound fluorescence in toxin protease inhibitor counterscreen, primary screen, artefact control for toxin protease inhibitor project, biochemical, multiplex microsphere, HTS (AID 624483); conditions: compound autofluorescence counterscreen, microsphere flow cytometry
About 11,000 (3.1%) of roughly 360,000 compounds were called active. Roughly 2% stayed inconclusive and do not appear here. Cut-off read from the data, not from the text of the source: active = fluorescence intensity above about 16000; inconclusive = no clear call, values can overlap the other calls; inactive = below that. This is one part of a sample in which actives are shown more often than they occur.
Outcome codes: active, inactive

                                    molecule       cat
 0   CCc1cccc(C)c1NC(=O)CSc1nnc(-c2ccco2)n1N    active
 1  CCCCNC(=O)OC1CC2CC1[C@H]1CCCCN1C2=O (some centres not stated)  inactive
 2         Nn1c(SCC(=O)Nc2nccs2)nnc1-c1ccco1  inactive
 3  NC(=O)c1c(NC(=O)CSc2nnc(-c3ccco3)n2N)sc2c1CCCC2  inactive
 4  CC(=NCc1ccc2c(c1)OCO2)c1c(O)[nH]c(=O)[nH]c1=O  inactive
 5  CN(C)C(=O)c1cccc(-c2cnc3c(NC=O)cc(-c4ccc(C(=O)N5CCOCC5)cc4)cn23)c1  inactive
 6  CC(C)C[C@H]1CNC(=O)C(=O)N1C[C@H]1CCCN1C[C@H](Cc1ccc(O)cc1)N1C[C@H](CC(C)C)N(CC2CCCCCC2)C(=O)C1=O  inactive
 7  CC1CCN(Cc2nc3c(c(=O)n(C)c(=O)n3C)n2CCc2ccccc2)CC1  inactive
 8  OC[C@@H]1CN(Cc2ccc(Cl)cc2)C[C@H](n2cnc3c(NCc4ccncc4)ncnc32)O1  inactive
 9  CCOC(=O)c1cnc(SCC(=O)Nc2ccccc2C(=O)OC)nc1N  inactive
10  CCOC(=O)C1=CCC(c2ccc(F)cc2)N(S(=O)(=O)c2ccc(C)cc2)C1 (configuration not stated)  inactive
11       CCOC(=O)c1cnc(SCC(=O)NCc2ccco2)nc1N  inactive
12                    N#C/C=C\Oc1ccc(Cl)cc1N    active
13  CC(C)C[C@@H]1COc2cc(N3CCC[C@@H]3CO)ccc2S(=O)(=O)N1  inactive
14  Cc1ccc(C(C)C)c(OCc2nnc(SCC(=O)Nc3nccs3)n2C)c1    active
15  CC(=NC1CCN(Cc2ccccc2)CC1)c1c(O)n(C)c(=O)n(C)c1=O    active
16  CC(=NCC1CCCO1)c1c(O)[nH]c(=O)[nH]c1=O (configuration not stated)  inactive
17   CCOC(=O)c1cnc(SCC(=O)Nc2cccc(OC)c2)nc1N    active
18  Cn1c(=O)c2cc(NC(=O)NCCc3cccs3)ccc2n1Cc1cccc(C(F)(F)F)c1  inactive
19  Cc1ccc(C(O)c2ncc(-c3ccccc3F)[nH]2)cc1F (configuration not stated)  inactive
20          Cn1c(SCC(=O)c2cccs2)nnc1-c1ccco1  inactive
21        Cn1c(SCC(=O)Nc2nccs2)nnc1-c1cccnc1  inactive

====

test: compound fluorescence in toxin protease inhibitor counterscreen, primary screen, artefact control for toxin protease inhibitor project, biochemical, multiplex microsphere, HTS (AID 624483); details: compound autofluorescence counterscreen, microsphere flow cytometry
The campaign covered roughly 360,000 compounds. About 11,000 (3.1%) were called active. Inconclusive results (about 2%) are left out. No stated cut-off is given here; in the data, active means fluorescence intensity above about 16000; inconclusive means no clear call, values can overlap the other calls; inactive means below that. What follows is part of a selection rich in actives, with near analogues and random picks from the rest.
Outcome codes: active, inactive

>>> df
                                   molecule       cat
0  O=C(NCc1ccc(F)cc1F)[C@@H]1CCCN1C(=O)[C@@H]1CCCN1C(=O)c1cccc(Cl)c1  inactive
1  C=C(C)C1CC=C(C)/C(=N\NC(=O)CNc2ccccc2OC)C1 (stereo not given)  inactive
2  S=C(NCCCc1cnc[nH]1)NCCCN(Cc1ccc(Cl)c(Cl)c1)c1ccc(Br)cn1  inactive
3  CCOC(=O)C1CCCN(C(=O)c2ccc(N(C)C)cc2)CC1 (stereo not given)  inactive
4       CCOc1ccc(S(=O)(=O)n2ccnc2)c2ccccc12  inactive
5          COc1ccc(S(=O)(=O)N2CCCC2)c(C)c1C  inactive
6  CCN(CC)C(=O)CSc1nnc(-c2cnccn2)n1-c1ccc(C)cc1    active
7  O=C(Nc1cccc2cccnc12)c1ccc2sc([C@H]3C[C@H](O)[C@@H](CO)O3)nc2c1  inactive
8  CC(=O)NC(C)(C)C1CC=C(C)/C(=N\O)C1 (stereo not given)    active
9  COc1cc(NC(=O)C2=CC(c3ccco3)=NS(=O)(=O)N2C)cc(OC)c1OC  inactive
